system: A549; assay: NCI tumour cell line growth inhibition, 48 h
Activity calls are given as the source filed them. Cut-off read from the data, not from the text of the source: active = GI50 up to about 1.1 µM and inactive = higher.
Output constraint: value belongs to Yes for active, No for inactive

[in] What did this assay record as the result for `Cc1cc(C)nc(Sc2c([N+](=O)[O-])ncn2C)n1` ?
[out] No

[in] What did this assay record as the result for O=C(CNc1c(Cl)cccc1Cl)NC1C=Cc2ccc(S(=O)(=O)Nc3c(Cl)cccc3Cl)cc2C1=O (configuration not stated) ?
[out] No

[in] What did this assay record as the result for `Clc1sc(Cl)c2c1[C@H](Br)C[C@@H]2Cl` ?
[out] No

[in] What did this assay record as the result for `OC[C@@H](O)[C@H](O)[C@@H](O)/C=N/Nc1ccc(Cl)nn1` ?
[out] No

[in] What did this assay record as the result for COC(=O)C(C(=O)C(=O)Nc1cccc([N+](=O)[O-])c1)c1nc2ccc([N+](=O)[O-])cc2nc1O (configuration not stated) ?
[out] No

[in] What did this assay record as the result for CC12CCC3C(CCC4CC(OC(=O)Cc5ccc(N(CCCl)CCCl)cc5)CCC43C)C1CCC(=O)N2 (configuration not stated) ?
[out] No

[in] What did this assay record as the result for `Cc1cccc(C)c1NC(=O)CCc1n[nH]c(=S)o1` ?
[out] No

[in] What did this assay record as the result for CCOC(=O)CCC(NC(=O)c1ccc(OCc2nc3ccccc3n3cccc23)cc1)C(=O)OCC (configuration not stated) ?
[out] No

[in] What did this assay record as the result for `COc1ccc(N2C(=O)/C(=C/c3ccc(N(CCC#N)CCC#N)cc3C)N=C2/C=C\c2ccccc2)cc1` ?
[out] No

[in] What did this assay record as the result for `NC(C(=O)OC(=O)c1ccccc1)C(=O)OC(=O)c1ccccc1` ?
[out] No

[in] What did this assay record as the result for `CCOC(=O)c1csc(NC(=O)CCN2CCN(C)CC2)n1` ?
[out] No

[in] What did this assay record as the result for COC12OC3(C4OC41)C(C(=O)O[C@H]3CO[Si](C)(C)C(C)(C)C)C2C(=O)Oc1ccccc1 (some centres not stated) ?
[out] No

[in] What did this assay record as the result for `O=S(=O)(c1ccc(Br)cc1)N1CCN(S(=O)(=O)c2ccc(Br)cc2)CC1` ?
[out] No

[in] What did this assay record as the result for c1ncc(C23C4C5C6C4C2C6C53)[nH]1 (configuration not stated) ?
[out] No

[in] What did this assay record as the result for Fc1ccc(C(OCCN2CC3CC2CN3CCCc2ccccc2)c2ccc(F)cc2)cc1 (configuration not stated) ?
[out] No

[in] What did this assay record as the result for `CN/N=C(/CC(=O)c1sc(NNC(C)=O)nc1C)C(=O)Nc1ccc(OC)cc1OC` ?
[out] No

[in] What did this assay record as the result for COC(=O)CC(C)(N[S+]([O-])c1ccc(C)cc1)c1ccccc1 (configuration not stated) ?
[out] No

[in] What did this assay record as the result for O=C(O)CCC(NC(=O)c1ccc(Oc2nc3ccccc3nc2-c2ccccc2)cc1)C(=O)O (configuration not stated) ?
[out] No

[in] What did this assay record as the result for O=[N+]([O-])C1=Cc2c(O)ccc(O)c2C2OC=CC12 (configuration not stated) ?
[out] No

[in] What did this assay record as the result for CCOC(=O)CC(NCc1ccc(/N=C/c2nc3ccc(C(F)(F)F)cc3nc2-c2ccccc2)cc1)C(=O)OCC (configuration not stated) ?
[out] No

[in] What did this assay record as the result for `Nc1ccc(Oc2ccc(C3(c4ccc(Oc5ccc(N)c(O)c5)cc4)C4CC5CC(C4)CC3C5)cc2)cc1O` ?
[out] No

[in] What did this assay record as the result for CCN1CC2=C(N=c3s/c(=C\c4ccc(Cl)cc4)c(=O)n3C2c2ccc(Cl)cc2)/C(=C/c2ccc(Cl)cc2)C1 (configuration not stated) ?
[out] No

[in] What did this assay record as the result for `NN/C(=N\c1ccc(Cl)cc1)NS(=O)(=O)c1ccc(S(=O)(=O)c2ccccc2)s1` ?
[out] No

[in] What did this assay record as the result for `COc1cc2c(c(OC)c1OC)-c1ccc(SC)c(=O)cc1[C@@H](NC(=O)C(F)(F)F)CC2` ?
[out] Yes

[in] What did this assay record as the result for Cc1c2n(c3ccccc13)CC1C2N(C)OC1(C)C (configuration not stated) ?
[out] No

[in] What did this assay record as the result for O=C(O)CCC1C(=O)C2CCN1CC2 (configuration not stated) ?
[out] No

[in] What did this assay record as the result for `CN1CCc2c([nH]c3ccccc23)C1` ?
[out] No

[in] What did this assay record as the result for CCOC(CI)O[C@@H]1C=C[C@H](OC(C)=O)C1 (some centres not stated) ?
[out] No

[in] What did this assay record as the result for `Cc1c(Cc2ccccc2)n(COCCCO)c(=O)[nH]c1=O` ?
[out] No

[in] What did this assay record as the result for `CSc1ncc2c(C#N)c3sc4ccccc4n3c(=O)c2n1` ?
[out] No

[in] What did this assay record as the result for `c1coc(-c2nccc3c2[nH]c2ccccc23)c1` ?
[out] No

[in] What did this assay record as the result for Cc1ccc(C(O)/C(=N/N)c2nc3ccc([N+](=O)[O-])cc3nc2O)cc1 (configuration not stated) ?
[out] No

[in] What did this assay record as the result for `CC(C)(C)C1=CC(=C(c2ccc(-c3c4nc(c(-c5ccc(C(=C6C=C(C(C)(C)C)C(=O)C(C(C)(C)C)=C6)c6cc(C(C)(C)C)c(O)c(C(C)(C)C)c6)cc5)c5ccc([nH]5)c(-c5ccc(C(=C6C=C(C(C)(C)C)C(=O)C(C(C)(C)C)=C6)c6cc(C(C)(C)C)c(O)c(C(C)(C)C)c6)cc5)c5nc(c(-c6ccc(C(=C7C=C(C(C)(C)C)C(=O)C(C(C)(C)C)=C7)c7cc(C(C)(C)C)c(O)c(C(C)(C)C)c7)cc6)c6ccc3[nH]6)C=C5)C=C4)cc2)c2cc(C(C)(C)C)c(O)c(C(C)(C)C)c2)C=C(C(C)(C)C)C1=O` ?
[out] No

[in] What did this assay record as the result for `NC(=S)NNC(=S)NC(=O)c1ccco1` ?
[out] No

[in] What did this assay record as the result for `C[C@H]1/C(=C/C(=O)OCCN(C)C)CC[C@H]2[C@H]1C(=O)C[C@H]1C(C)(C)[C@@H](O)CC[C@]21C` ?
[out] No

[in] What did this assay record as the result for `CCOC(=O)c1ccc(NCC#CCN2CCCCC2)cc1` ?
[out] No

[in] What did this assay record as the result for `CN(Cc1cnc2nc(N)nc(N)c2n1)c1ccc(C(=O)NCCCS(=O)(=O)O)cc1` ?
[out] No

These entries and their values trace back to ChEMBL document CHEMBL1201862.
